Kindly state Tyk2 selectivity over Jak2 for each of the entries shown.
Target Desc: Jak2 (Homo sapiens)
Construct: Cell Type: UT7 cells engineered to express the erythropoietin (EPO) receptor; endogenous in cells; host or cells: UT7 cells engineered to express the EPO receptor
Sequence (O60674 whole entry): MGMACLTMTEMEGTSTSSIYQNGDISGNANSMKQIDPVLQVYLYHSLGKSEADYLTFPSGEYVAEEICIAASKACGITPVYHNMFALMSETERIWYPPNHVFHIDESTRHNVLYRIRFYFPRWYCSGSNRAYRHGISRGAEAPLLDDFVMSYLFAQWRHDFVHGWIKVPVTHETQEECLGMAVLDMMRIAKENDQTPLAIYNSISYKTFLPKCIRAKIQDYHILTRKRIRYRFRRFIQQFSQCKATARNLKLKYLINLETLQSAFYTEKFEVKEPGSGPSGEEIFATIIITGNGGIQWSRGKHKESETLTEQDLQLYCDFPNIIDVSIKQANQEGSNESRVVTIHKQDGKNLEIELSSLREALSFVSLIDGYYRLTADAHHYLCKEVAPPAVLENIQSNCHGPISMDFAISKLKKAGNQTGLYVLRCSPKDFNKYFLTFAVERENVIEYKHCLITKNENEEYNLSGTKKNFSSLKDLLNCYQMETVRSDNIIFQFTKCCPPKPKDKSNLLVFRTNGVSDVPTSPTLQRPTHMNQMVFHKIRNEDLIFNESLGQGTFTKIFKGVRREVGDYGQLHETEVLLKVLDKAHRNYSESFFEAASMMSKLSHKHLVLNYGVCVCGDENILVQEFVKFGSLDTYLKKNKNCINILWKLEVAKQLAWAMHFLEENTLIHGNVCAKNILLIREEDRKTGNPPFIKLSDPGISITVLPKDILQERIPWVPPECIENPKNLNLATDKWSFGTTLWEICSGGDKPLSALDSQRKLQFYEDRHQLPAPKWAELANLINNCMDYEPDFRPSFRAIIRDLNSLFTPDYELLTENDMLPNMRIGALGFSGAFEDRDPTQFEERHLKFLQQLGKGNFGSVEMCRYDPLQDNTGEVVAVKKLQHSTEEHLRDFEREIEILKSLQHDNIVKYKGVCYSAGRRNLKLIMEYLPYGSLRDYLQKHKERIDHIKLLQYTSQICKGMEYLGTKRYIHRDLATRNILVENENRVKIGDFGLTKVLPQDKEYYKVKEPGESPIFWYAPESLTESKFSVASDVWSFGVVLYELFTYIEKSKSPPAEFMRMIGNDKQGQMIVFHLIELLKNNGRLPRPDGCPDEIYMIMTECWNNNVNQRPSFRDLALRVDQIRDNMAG
Procedure Text: Jak2 (PSTATS UT7) alpha screen assay: inhibition of EPO induced phosphorylation of STAT5 in UT7 cells
Assay type: cell-based
Particulars: calculated from tabulated EC50 data (Jak2 / Tyk2)

Worked examples follow.
Task item: For the molecule COC1(c2cccc(-c3cn(C)c4cnc(NC(N)=O)cc34)n2)COC1 , what Tyk2 selectivity over Jak2 is on record?
Reply: >176-fold

Task item: Also, CC[C@]1(c2cc(C#N)cc(-c3cn(C)c4cnc(NC(C)=O)cc34)n2)CCOC1 please.
Reply: >240-fold

Task item: Also, Cn1cc(-c2cncc([C@@]3(C)CCOC3)n2)c2cc(NC(N)=O)ncc21 please.
Reply: >128-fold

Task item: Also, CO[C@H](C)COc1cc(-c2cn(C)c3cnc(NC(C)=O)cc23)nc([C@]2(OC)CCOC2)c1 please.
Reply: >272-fold

Task item: Also, CO[C@@]1(c2cc(O[C@@H](C)CCO)cc(-c3cn(C)c4cnc(NC(C)=O)cc34)n2)CCOC1 please.
Reply: >187-fold

Task item: Also, COCCOc1cc(-c2cn(C)c3cnc(NC(C)=O)cc23)nc([C@]2(OC)CCOC2)c1 please.
Reply: >1000-fold

Please give Tyk2 selectivity over Jak2, item by item, for the list that follows.
1. CC[C@@]1(c2cccc(-c3cn(C)c4cnc(NC(N)=O)cc34)n2)CCOC1
2. CO[C@@]1(c2cc(OCC[C@@H](C)O)cc(-c3cn(C)c4cnc(NC(C)=O)cc34)n2)CCOC1

Reply:
1: >1786-fold; 2: >28-fold
